Entries and their measured solubility kinetic follow.
- experimental-setup: buffer; pH 7.4; 200.0 µM

**Q:** Given COc1ccc(S(=O)(=O)NC2CCCC2)cc1NC(C)=O , respond with its solubility kinetic.
**A:** > 46.9 µg/mL

**Q:** Determine from records and report solubility kinetic for O=C(O)c1cc(=O)[nH]c2c(Cl)cccc12
**A:** > 33.5 µg/mL

**Q:** Answer with the recorded solubility kinetic for the compound listed here: Nc1ccccc1SCc1c(Cl)cccc1Cl
**A:** < 0.6 µg/mL

**Q:** Query solubility kinetic for O=C(NC1CCN(C(=O)c2cccc([N+](=O)[O-])c2)CC1)c1ccccc1
**A:** > 53 µg/mL

---

- experimental-setup: buffer; pH 7.4; 200.0 µM
measurement-label: solubility kinetic

Cc1noc(NS(=O)(=O)c2ccc(NC(=O)C(C)C)cc2)c1C : > 50.6 µg/mL
COc1ccc(/C=N/OCC(=O)NCC(C)C)c(OC)c1 : > 44.2 µg/mL

**Q:** Report solubility kinetic for O=C(O)c1cccnc1SCc1cn2cc(Cl)ccc2n1
**A:** > 48 µg/mL

**Q:** Answer with the recorded solubility kinetic of CCc1noc(C)c1C(=O)N(CCOC)c1c(N)n(CC(C)C)c(=O)[nH]c1=O only.
**A:** 55.6 µg/mL

**Q:** Return the recorded solubility kinetic value; entry: CN(C)NC(=O)c1ccc([N+](=O)[O-])s1
**A:** > 32.3 µg/mL

---

- experimental-setup: buffer; pH 7.4; 200.0 µM
Entries and their measured solubility kinetic follow.

CCOc1ccccc1C(=O)Nc1cccc2ccccc12 : < 0.6 µg/mL

**Q:** For O=c1cc(Cl)c2ccccc2n1-c1ccccc1 , write its solubility kinetic.
**A:** > 38.4 µg/mL

**Q:** For the molecule Cc1ccc(OS(=O)(=O)c2cn(C)c(=O)n(C)c2=O)cc1C , give its reported solubility kinetic.
**A:** > 48.7 µg/mL

**Q:** Tell me its solubility kinetic given COC(=O)C(Cc1ccc(O)cc1)NC(=O)c1ccc2c(c1)OCCO2 (centres undefined) as the entry.
**A:** > 53.6 µg/mL

---

- experimental-setup: buffer; pH 7.4; 200.0 µM
Listing: solubility kinetic of selected compounds

O=C(O)c1ccc(Cn2cc(/C=C\[N+](=O)[O-])c3ccccc32)o1 : > 46.8 µg/mL
CC(=O)c1cn(-c2ccc(Cl)cc2)c(=O)[nH]c1=O : 33.7 µg/mL
CC(C)(C)C(=O)OC/C(N)=N/OC(=O)c1ccccc1 : > 41.7 µg/mL

Please turn your attention to the following entry.
**Q:** For the compound Cl.NC(Cc1ccccc1)C(=O)N1CCCCC1 (centres undefined) , report solubility kinetic.
**A:** > 40.3 µg/mL

---

- experimental-setup: buffer; pH 7.4; 200.0 µM
measurement-label: solubility kinetic (µg/mL)
Please respond with the number in µg/mL and leave the unit unwritten.

Worked cases, solubility kinetic given:
O=[N+]([O-])c1cccc(CSc2ncnc3ccccc23)c1 : 2
Cc1ccc(CNc2nc(-c3cccnc3)nc3ccccc23)cc1 : 2.5
COc1ccc(O)c(CN2CCCC(C(=O)c3ccccc3SC)C2)c1 (stereo not given) : 17.7
CC(C#N)Sc1ccc(S(=O)(=O)N2CCCCC2)cn1 (stereo not given) : 9.4
CC1CN(S(=O)(=O)c2cccc(C(F)(F)F)c2)CC(C)O1 (stereo not given) : 43.6
COCCN(C/C=C/c1ccccc1)C/C=C/c1ccccc1 : 10.1

**Q:** Could you please provide reported solubility kinetic for Cc1csc(NC(=O)CS(=O)(=O)c2ccccc2)n1 ? Thanks!
**A:** 44.3

**Q:** Give the reported value of solubility kinetic for this record: COc1ccc(C(=O)/C=C2/C(=O)Nc3ccccc32)cc1OC
**A:** 1.2

**Q:** Complete the entry with solubility kinetic for O=C(c1ccc2c(c1)OCO2)C1CCCN(Cc2ccccn2)C1 (stereo not given)
**A:** 32.8

**Q:** Give solubility kinetic for the following molecule: CC(CCc1ccccc1)NC(=O)c1ccccc1Cl (stereo not given)
**A:** 41.6

---

- experimental-setup: buffer; pH 7.4; 200.0 µM
measurement-label: solubility kinetic

Nc1nnc(SCC(=O)OCC(=O)c2ccccc2)s1 : > 46.4 µg/mL

**Q:** Provide measured solubility kinetic value, entry: O=C(Nn1cnc2ccccc2c1=O)c1ccc([N+](=O)[O-])cc1
**A:** > 46.5 µg/mL

**Q:** Provide one value: measured solubility kinetic of O=C(N[C@@H](Cc1c[nH]c2ccccc12)C(=O)O)c1ccc(Cl)cc1
**A:** > 51.4 µg/mL

**Q:** Annotate the compound O=C(OCC(=O)N1CCCCC1)c1cccs1 with its measured solubility kinetic.
**A:** > 38 µg/mL

---

- experimental-setup: buffer; pH 7.4; 200.0 µM
measurement-label: solubility kinetic

CCCCOc1ccc(C2(C)NC(=O)N(C)C2=O)cc1 (stereo unspecified) : > 41.5 µg/mL
CC(C)(C)CC(=O)NCCc1csc(-c2ccccc2)n1 : > 45.4 µg/mL
CC(C)NC(=O)COc1ccc(S(=O)(=O)N2CCCC2)cc1 : > 49 µg/mL
Cc1cccc(OCc2cc(-c3ccccc3)no2)c1C : < 0.6 µg/mL
COc1ccc(CCNC(=O)NS(=O)(=O)c2ccc(C)cc2)cc1OC : > 56.8 µg/mL

// switching to the query compound
**Q:** Using known records, supply solubility kinetic for Cc1cccc(C(=O)NCC(=O)N2CCCC2)c1
**A:** > 36.9 µg/mL

---

Parameter solubility kinetic: see the listing below.
- experimental-setup: buffer; pH 7.4; 200.0 µM
All answers are understood in µg/mL, so give the number only.

Recorded results for 8 molecules are shown here.
Cc1cccc(Nc2nc(-c3ccccc3)cs2)n1 : 0.3
CN1CCN(c2oc(Cc3cccc4ccccc34)nc2C#N)CC1 : 43.5
COc1ccc(NC(=O)C2=C(C)NC(=O)NC2c2ccccc2[N+](=O)[O-])cc1 (configuration not stated) : 57.1
COc1cccc(OC)c1C(=O)Nc1ccccc1Sc1ccccc1 : 3.6
Cc1c(C(=O)O)cc(C(C)(C)C)n1CCSCCO : 38.8
O=C(Nc1ccccc1Cl)Nc1cccnc1Cl : 2.8
CN(C)c1ccc(/C=C/C#N)cc1 : 5.4
COc1ccc(CCC(=O)NCCc2ccc(Cl)cc2)cc1 : 3.7

We now examine a further molecule.
**Q:** Note solubility kinetic for the molecule shown: CCC1CCc2c(sc(NC(=O)c3cnccn3)c2C(N)=O)C1 (configuration not stated)
**A:** 1.8

---

- experimental-setup: buffer; pH 7.4; 200.0 µM
measurement-label: solubility kinetic

CC(C(=O)NC1CCCCC1)N1C(=O)C2C3C=CC(C3)C2C1=O (stereo unspecified) : > 47.5 µg/mL

**Q:** State its solubility kinetic: O=C(CCc1ccccc1)NCCc1nc2ccccc2[nH]1
**A:** > 44 µg/mL

**Q:** Complete the entry with solubility kinetic for Cc1ccc(C(=O)Nc2ccncc2)c(C)c1
**A:** > 33.9 µg/mL

**Q:** Indicate the recorded solubility kinetic value for this compound: CCc1nc2sc3c(Cl)ncnc3c2c2c1CCCC2
**A:** < 0.2 µg/mL

**Q:** Tell me solubility kinetic reported for O=[N+]([O-])c1ccc(Cl)c(S(=O)(=O)n2ccnc2)c1
**A:** > 43.2 µg/mL

**Q:** Supply recorded solubility kinetic for Cc1cccc(OCC(=O)NCc2ccccc2)c1 here.
**A:** > 38.3 µg/mL

---

- experimental-setup: buffer; pH 7.4; 200.0 µM
solubility kinetic overview

Here are 3 compounds together with their reported answers.
CC(C)c1ccc(N=C(N)N=C(N)N)cc1.Cl : > 38.4 µg/mL
O=[N+]([O-])/C=C1\CCCCCN1 : > 23.4 µg/mL
O=c1[nH]c(Cc2cccc(C(F)(F)F)c2)nc2ccccc12 : < 0.3 µg/mL

**Q:** Return solubility kinetic (reported value) for this compound: Cc1cc(NC(=O)CSc2nc3ccccc3cc2C#N)no1
**A:** 2.9 µg/mL

---

- experimental-setup: buffer; pH 7.4; 200.0 µM
measurement-label: solubility kinetic

COc1ccc(-n2nc(C)cc2Nc2ccccc2C(=O)O)cc1 : > 48.5 µg/mL
CC1CCN(C(=O)c2ccc([N+](=O)[O-])o2)CC1 : > 35.7 µg/mL
O=C(COC(=O)COc1ccccc1[N+](=O)[O-])NCc1ccc2c(c1)OCO2 : > 58.2 µg/mL

**Q:** Determine from records and report solubility kinetic for Cc1ccc(CNS(=O)(=O)c2cccc3nsnc23)cc1
**A:** > 47.9 µg/mL

**Q:** Give the reported solubility kinetic for this compound. NC(=O)COC(=O)c1c2c(nc3ccccc13)CCCCC2
**A:** > 44.8 µg/mL

**Q:** Input Cl.Fc1ccccc1CNC1CN2CCC1CC2 (stereo unspecified) , output reported solubility kinetic.
**A:** > 46.1 µg/mL
